Please go through the items and note down their Ki.
Target: Adenosine receptor A3 (Rattus norvegicus, UniProt P28647)
Sequence (P28647 whole entry): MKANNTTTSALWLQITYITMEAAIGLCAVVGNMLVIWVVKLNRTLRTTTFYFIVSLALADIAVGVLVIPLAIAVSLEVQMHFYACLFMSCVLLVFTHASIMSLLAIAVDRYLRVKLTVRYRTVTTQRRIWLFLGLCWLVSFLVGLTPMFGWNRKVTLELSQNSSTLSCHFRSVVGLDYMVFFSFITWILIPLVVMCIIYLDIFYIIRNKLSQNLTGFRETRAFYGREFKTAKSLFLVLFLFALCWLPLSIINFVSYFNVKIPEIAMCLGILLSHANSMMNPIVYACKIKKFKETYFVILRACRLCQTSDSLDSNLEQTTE

[ask] What Ki value was documented for this molecule, Cc1cc(C)cc(-c2nc(NC(=O)c3cccnc3)sc2-c2ccncc2)c1 ?
[reply] 1.6 nM

[ask] Queued: COc1ccc(-c2nsc(NC(C)=O)n2)cc1
[reply] > 10000 nM

All values here come from ChEMBL document CHEMBL2177029.
